tested on: ATP; assay: switch fluorescence ratio, 500 uM ATP over buffer (Cy3 cluster intensity, sum of 5 cycles each) (fold (ratio)); higher = stronger signal-on switching upon ATP binding; sequences stand for … in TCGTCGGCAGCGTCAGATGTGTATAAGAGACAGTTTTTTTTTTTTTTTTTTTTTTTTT…TC; conditions: aptamer strand: ATP DNA aptamer (quencher-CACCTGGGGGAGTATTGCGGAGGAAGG + anchor), 100 nM annealed; ATP concentration: 500 uM;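 further: ATP exposure 15 min at 22 °C before imaging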
For each of the sequences below, state its switch fluorescence ratio.
The answer should be written as a number, with no unit following it.

Query: Given "ACAAAACGTT" , state its recorded switch fluorescence ratio.
Response: 1.03

Query: Return reported switch fluorescence ratio; argument: "CAATAAAAG"
Response: 0.977

Query: Fill blank: measured switch fluorescence ratio of the sequence "GTGTTACTGT" is ____.
Response: 0.959

Query: Fill blank: measured switch fluorescence ratio of the sequence "TTAGTTACGA" is ____.
Response: 1.04

Query: What does the data say about its switch fluorescence ratio? Entry: "CTGTTGGGTT"
Response: 0.997

Query: May I ask what switch fluorescence ratio has been recorded for "TGAATGAAGG" ?
Response: 1.01

Query: Return reported switch fluorescence ratio; argument: "ACGCTTGAAT"
Response: 1.01

Query: Returns the measured switch fluorescence ratio for the input sequence. Input: "AGCTTTGTC"
Response: 0.989

Query: Look at this sequence and give its reported switch fluorescence ratio. "TGGGTCAGTG"
Response: 1

Query: Given "TAGAGAATCG" , state its recorded switch fluorescence ratio.
Response: 1.07

Query: Using the record for "TTGGAATTTT" , report its switch fluorescence ratio.
Response: 1.03

Query: Query (sequence): "GTTATGCTCT" ; field requested: switch fluorescence ratio
Response: 1.01

Query: Fill in the blank: the reported switch fluorescence ratio of "CGTGCTAGAA" is ____.
Response: 1.02

Query: Requested read-out: switch fluorescence ratio. Entry: "ATATAGTAAT"
Response: 0.984

Query: Which switch fluorescence ratio is listed for "TCTAATCGGA" ?
Response: 0.975

Query: Which value of switch fluorescence ratio has been reported for "GTTTGCTTTT" in the records?
Response: 1

Query: Please look up its switch fluorescence ratio: "AGGCTATATT"
Response: 0.975

Query: Data request, read-out switch fluorescence ratio, for "TTTTCGAAGC"
Response: 2.08

Query: Requested read-out: switch fluorescence ratio. Entry: "AAGTTAGGGA"
Response: 0.919

Query: Given "CGTATGGGGA" , state its recorded switch fluorescence ratio.
Response: 1

Query: Requested field: switch fluorescence ratio. Item: "GAAGGTTAGG"
Response: 0.987

Query: Form field: reported switch fluorescence ratio of "CCTTTCGGCT"
Response: 1.07

Query: # input sequence: "AGTTTGGTCT" ; wanted: its switch fluorescence ratio
Response: 0.984

Query: Quick check: switch fluorescence ratio of "AGGGGTGCTG" ?
Response: 0.975

Query: Field request: switch fluorescence ratio | item: "CGCGATGGGT"
Response: 1.08

Query: Look at this sequence and give its reported switch fluorescence ratio. "ATCGTGGGGA"
Response: 1.01

Query: If you can, please state the reported switch fluorescence ratio value of "TATGAGTAGG" .
Response: 0.995

Query: Entry "TAAAAGGGGA" : reported switch fluorescence ratio = ?
Response: 0.982

Query: Returns the measured switch fluorescence ratio for the input sequence. Input: "CGTTGTTTGG"
Response: 0.966

Query: Field request: switch fluorescence ratio | item: "CGTTGAGGAC"
Response: 1.02

Query: Given the sequence "GGGAATGGGT" , what is its reported switch fluorescence ratio?
Response: 1.01

Query: Fill blank: measured switch fluorescence ratio of the sequence "TGTGGCCAGG" is ____.
Response: 1.04

Query: Which switch fluorescence ratio reading was recorded for the sequence "CGGGTTGCAG" ?
Response: 0.97

Query: Entry "ATAGAATTTA" : reported switch fluorescence ratio = ?
Response: 0.956

Query: Need switch fluorescence ratio, item "CCTTGTGCAG"
Response: 1.25

Query: Return reported switch fluorescence ratio; argument: "GAGATAAGAG"
Response: 1.01

Query: Look up switch fluorescence ratio: "TGCTTGGAGG"
Response: 0.996

Query: Field request: switch fluorescence ratio | item: "CATGGGCTGG"
Response: 0.996

Query: Record request: switch fluorescence ratio value, item "TCCTTATAGG"
Response: 1

Query: Look up switch fluorescence ratio for this sequence: "CAACTCAGTA"
Response: 0.988

Query: Consider the sequence "GCGGTAGACG" and give its measured switch fluorescence ratio.
Response: 1.01

Query: Sample "TTACGTTTGG" — what was its switch fluorescence ratio?
Response: 1.02

Query: Dear colleague, I am looking for the recorded switch fluorescence ratio of the following sequence: "ATCGTATTCA"
Response: 1.01

Query: What measured switch fluorescence ratio goes with "TGCCTGGGGA" ?
Response: 1.2

Query: Reported switch fluorescence ratio, sequence "TTGAATACAC" : ____
Response: 1.11

Query: May I ask what switch fluorescence ratio has been recorded for "TTGGAGGTTC" ?
Response: 0.99

Query: Find the recorded switch fluorescence ratio belonging to "GGTCAAGGCC" and report it.
Response: 0.999

Query: Would you kindly share the measured switch fluorescence ratio for "GGGTAAGGGA" ?
Response: 0.961

Query: Request the reported switch fluorescence ratio associated with "AGGGGAATTT"
Response: 0.992

Query: Given the entry "GATGGGTTTT" , report its measured switch fluorescence ratio.
Response: 0.997

Query: switch fluorescence ratio for "ATTATCACGA" ?
Response: 0.989

Query: Need switch fluorescence ratio, item "TTCGGAGTCA"
Response: 1.1

Query: Form field: reported switch fluorescence ratio of "AAATGCTTCA"
Response: 1.03

Query: switch fluorescence ratio lookup needed for "TTGATGCGTG" , thanks.
Response: 0.966

Query: # input sequence: "TATGGTGACG" ; wanted: its switch fluorescence ratio
Response: 1

Query: # get_value(readout='switch fluorescence ratio', item= "GGCATAGATT" )
Response: 0.976

Query: Entry under review: "CAAAGTACGT" . Reported switch fluorescence ratio?
Response: 1.18

Query: Quick one: switch fluorescence ratio of "GGGGTGGTCG" ?
Response: 0.986

Query: Entry "GAATTCGGCT" : reported switch fluorescence ratio = ?
Response: 1.02

Query: Param item = "GGGTGGCGTG" ; retrieve measured switch fluorescence ratio.
Response: 0.981

Query: Quick one: switch fluorescence ratio for "TTTATGGGAT" ?
Response: 0.986

Query: Which value of switch fluorescence ratio has been reported for "ATAAGGCTTG" in the records?
Response: 0.968

Query: What does the record list as switch fluorescence ratio for "CGAACCGGCG" ?
Response: 1.03

Query: Look up switch fluorescence ratio for this sequence: "CAACTATTGC"
Response: 1.04

Query: Entry under review: "GACAGGTCGT" . Reported switch fluorescence ratio?
Response: 1.04

Query: // lookup switch fluorescence ratio for "AGTTTACATT"
Response: 1.02

Query: Find the recorded switch fluorescence ratio belonging to "GGGGATGGCT" and report it.
Response: 0.992

Query: Fill in the blank: the reported switch fluorescence ratio of "AAAAATGTTG" is ____.
Response: 1

Query: Name the recorded switch fluorescence ratio for "CGGGTAACTT" .
Response: 1.02

Query: Request the reported switch fluorescence ratio associated with "AATGAAAAAT"
Response: 0.989

Query: # get_value(readout='switch fluorescence ratio', item= "CGCAAAGAAG" )
Response: 1.08

Query: What switch fluorescence ratio value was documented for this sequence, "GGGAAACAAA" ?
Response: 0.96

Query: Item "CTGAGATCAG" has what recorded switch fluorescence ratio?
Response: 1.01

Query: I am curious: what switch fluorescence ratio value has been reported for "TCAAGTTACA" ?
Response: 1.08

Query: Return reported switch fluorescence ratio; argument: "TCCCGCTGGG"
Response: 1.17

Query: Fill in: switch fluorescence ratio of "TAGAGGGT" is ___
Response: 0.999

Query: Any idea what switch fluorescence ratio was measured for "TTAGCTGTAG" ?
Response: 1.09

Query: For the sequence shown here, "GCGGGAGTTT" , give the reported switch fluorescence ratio.
Response: 0.967

Query: Please give the measured switch fluorescence ratio for this sequence: "TTGCCGTGTT"
Response: 1.02

Query: # switch fluorescence ratio lookup, item "GGGGGTTCTT"
Response: 1.01

Query: Item "AAGTCGCTGT" has what recorded switch fluorescence ratio?
Response: 1.02

Query: Reported switch fluorescence ratio for "TCAGAAATGT" : what is it?
Response: 1.01

Query: Using the record for "GTGGAAGTTG" , report its switch fluorescence ratio.
Response: 0.949
